- test.system: HDGF PWWP domain (human, UniProt P51858 1-100)
- Sequence (P51858 1-100): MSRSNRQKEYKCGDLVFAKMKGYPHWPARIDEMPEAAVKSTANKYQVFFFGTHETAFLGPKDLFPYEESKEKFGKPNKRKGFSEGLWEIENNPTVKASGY
- method: PIFQ (Cy3 fluorescence quenching); 1 nM DNA; Hill n=1.0; unit not printed in legend; HDGF assays: 46 mM NaCl, 0.9 mM KCl, 3.3 mM Na2HPO4, 0.66 mM KH2PO4, pH 7.4; at least 1 h on ice; 1-10 nM Cy3 DNA, 10 pM-100 nM protein; RecA dsDNA control at pH 7.5
- condition.set: protein: recombinant; label: 3' Cy3
quantity: Kd (nM)
Quick note: give the figure in nM, leave out the unit.

Report Kd for 15 bp SMYD1 dsDNA (3' Cy3) (dsDNA) DNA 1: TTCAAGACCAGCCTG DNA 2: CAGGCTGGTCTTGAA please.
1.4
